The measured values listed here are drawn from PubChem BioAssay (NCATS).

test: Viability qHTS for spleen associated tyrosine kinase inhibitor (SYKi) drug resistant MV4-11 cells (AID 1963824); conditions: SYKi-resistant MV4-11 viability, CellTiter-Glo, 72 h; series mostly up to 45 µM; note: nearly all actives have a fitted effect of over 35% in size
Inconclusive results are not listed. The source made the active and inactive calls. Calls come from the whole dose curve; as a rule, active = well fitted cell-killing curve with a large enough effect; inconclusive = small, poorly fitted or top-dose-only effect, or effect the other way; inactive = no such curve, though single readings can be large or run the other way.
Outcomes: class 1 = active, class 0 = inactive

# Molecule, Group
rows = [
    ("CCCCC(F)(F)[C@@]1(O)CC[C@H]2[C@H](CC(=O)[C@@H]2CCCCCCC(=O)O)O1", "class 1"),
    ("Cc1nccn1CC1CCc2c(c3ccccc3n2C)C1=O (stereo unspecified)", "class 0"),
    ("CC(C)c1noc(N2CCC(COc3ccc(-c4ccc(S(C)(=O)=O)cc4)nc3)CC2)n1", "class 1"),
    ("CCC(C)(CN(C)C)OC(=O)c1ccccc1 (stereo unspecified)", "class 0"),
    ("Nc1nc(Cl)nc2c1ncn2C1OC(CO)C(O)C1F (stereo unspecified)", "class 1"),
    ("OCCNC1CCCc2c1[nH]c1ccc(-c3ccccc3)cc21 (stereo unspecified)", "class 1"),
    ("Cc1ccccc1N=Nc1ccc(N=Nc2c(O)ccc3ccccc23)c(C)c1", "class 0"),
    ("C=CCc1ccc(O[C@@H]2O[C@H](CO)[C@@H](O)[C@H](O)[C@H]2O)c(OC)c1", "class 0"),
    ("Cc1ccc(N)cc1O", "class 1"),
    ("COc1cc(C(C)C)c2c(c1)S(=O)(=O)N(COc1cc(=O)n3cccc(OCCN4CCCCC4)c3n1)C2=O", "class 1"),
    ("C[C@]12CCC(=O)C=C1C=C[C@@H]1[C@@H]2CC[C@@]2(C)[C@H]1CC[C@@]21CCC(=O)O1", "class 0"),
    ("COCCOCC(OC)OC", "class 0"),
    ("CCOC(=O)C1=Cc2ccc(C(F)(F)C(F)(F)F)cc2N=C(N)C1", "class 1"),
    ("C=C1CC[C@H]2[C@@](C)(CCC[C@@]2(C)C(=O)O)[C@@H]1CCC(C)CCO (stereo partly specified)", "class 0"),
    ("CC(C)n1c(/C=C/[C@H](O)C[C@H](O)CC(=O)O)c(-c2ccc(F)cc2)c2ccccc21", "class 1"),
    ("Oc1cccc(Nc2ncnc3sc4c(c23)CCCC4)c1", "class 1"),
    ("CC(CC(C)O[C@@H]1O[C@H](CO)[C@@H](O)[C@H](O)[C@H]1O)OC(=O)/C=C/c1ccc(O)cc1 (stereo partly specified)", "class 0"),
    ("CN(C)CCOc1cc(NS(=O)(=O)c2c(Cl)cc(C(F)(F)F)cc2Cl)ccc1Cl", "class 0"),
    ("CC12CCC3c4ccc(OC5OC(C(=O)O)C(O)C(O)C5O)cc4CCC3C1CCC2O (stereo unspecified)", "class 0"),
    ("CC(C)c1cnn2c(NCc3ccccc3)cc(NCCCCCCN)nc12", "class 1"),
    ("C[C@H](NC(=O)C(=O)Nc1ccccc1C(C)(C)C)C(=O)N[C@@H](CC(=O)O)C(=O)COc1c(F)c(F)cc(F)c1F", "class 1"),
]
